Assay context: in n-propanol, 298.15 K
Metric name: solubility (mole fraction)

>>> print(df.to_string())
                              compound  recorded_measurement
0  CC1CCC(=O)C1=O (stereo unspecified)                0.0903

----------
Assay context: in n-propanol, 313.15 K
Metric name: solubility (mole fraction)

>>> df
                              compound                 metric_name  recorded_measurement
0  CC1CCC(=O)C1=O (stereo unspecified)  solubility (mole fraction)                 0.202

----------
Assay context: in isobutanol, 288.15 K
Metric name: solubility (mole fraction)

>>> print(df.to_string())
                              compound  recorded_measurement
0  CC1CCC(=O)C1=O (stereo unspecified)                 0.052
